Target: recombinant human integrin αVβ6 (Homo sapiens (Human), UniProt P06756+P18564)
Sequence (P06756 31-992): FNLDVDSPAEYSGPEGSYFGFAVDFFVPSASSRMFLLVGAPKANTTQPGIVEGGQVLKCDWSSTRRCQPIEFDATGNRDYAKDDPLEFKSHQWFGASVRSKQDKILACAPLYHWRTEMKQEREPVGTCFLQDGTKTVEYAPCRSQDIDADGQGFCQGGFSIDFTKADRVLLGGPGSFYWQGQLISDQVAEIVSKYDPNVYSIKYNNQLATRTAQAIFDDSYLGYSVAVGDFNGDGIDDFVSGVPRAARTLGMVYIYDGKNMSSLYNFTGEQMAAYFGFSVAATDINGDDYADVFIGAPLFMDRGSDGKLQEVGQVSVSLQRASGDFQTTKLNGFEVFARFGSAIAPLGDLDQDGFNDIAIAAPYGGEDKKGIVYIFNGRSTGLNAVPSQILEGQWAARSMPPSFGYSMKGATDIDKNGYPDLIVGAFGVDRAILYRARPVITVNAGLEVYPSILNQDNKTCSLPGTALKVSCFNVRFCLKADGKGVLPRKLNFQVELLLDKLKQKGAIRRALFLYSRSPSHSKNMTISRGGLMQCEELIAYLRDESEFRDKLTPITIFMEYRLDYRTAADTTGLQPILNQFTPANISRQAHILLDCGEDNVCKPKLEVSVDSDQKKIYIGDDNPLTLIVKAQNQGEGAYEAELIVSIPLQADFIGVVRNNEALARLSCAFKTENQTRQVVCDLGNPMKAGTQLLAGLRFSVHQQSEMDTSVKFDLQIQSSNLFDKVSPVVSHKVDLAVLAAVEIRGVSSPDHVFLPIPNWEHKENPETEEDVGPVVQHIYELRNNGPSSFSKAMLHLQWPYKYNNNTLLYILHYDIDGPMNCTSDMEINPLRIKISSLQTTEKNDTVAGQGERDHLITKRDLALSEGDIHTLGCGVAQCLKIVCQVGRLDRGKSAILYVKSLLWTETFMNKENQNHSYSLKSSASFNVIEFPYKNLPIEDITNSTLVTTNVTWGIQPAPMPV
Sequence (P18564 22-707): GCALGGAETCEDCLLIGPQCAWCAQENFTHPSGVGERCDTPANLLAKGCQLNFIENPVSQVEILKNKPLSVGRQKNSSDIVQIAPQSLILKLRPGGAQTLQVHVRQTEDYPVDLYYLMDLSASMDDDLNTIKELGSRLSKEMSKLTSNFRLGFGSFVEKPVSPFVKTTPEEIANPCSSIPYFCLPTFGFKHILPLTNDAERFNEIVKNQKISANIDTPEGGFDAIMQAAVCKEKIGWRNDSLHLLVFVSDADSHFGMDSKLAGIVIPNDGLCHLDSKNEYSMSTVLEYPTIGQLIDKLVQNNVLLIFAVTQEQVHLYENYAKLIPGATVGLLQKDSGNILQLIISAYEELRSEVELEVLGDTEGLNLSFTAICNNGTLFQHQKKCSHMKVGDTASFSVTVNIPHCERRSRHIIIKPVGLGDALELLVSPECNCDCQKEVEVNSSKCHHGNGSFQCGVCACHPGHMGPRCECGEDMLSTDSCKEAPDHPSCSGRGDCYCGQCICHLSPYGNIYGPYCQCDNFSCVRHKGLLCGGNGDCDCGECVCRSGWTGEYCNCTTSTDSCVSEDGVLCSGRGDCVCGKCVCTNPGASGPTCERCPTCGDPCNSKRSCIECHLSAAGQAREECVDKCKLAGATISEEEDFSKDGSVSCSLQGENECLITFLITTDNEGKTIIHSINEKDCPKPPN
Assay: Solid phase integrin αVβ6 binding assay
Conditions: inhibition of recombinant TGFβ1 LAP binding to coated integrin, IC50 presented in four ranges, read-out: αvβ6 Inhibition IC50 (nM) - range

COMPOUND: O=C(O)[C@H](CCN(CCCCc1ccc2c(n1)NCCC2)CCOCC(F)(F)F)Nc1ncnc2cccnc12 [Compound 51]
IC50: < 50 nM
//
COMPOUND: CO[C@H](C)CN(CCCCc1ccc2c(n1)NCCC2)CC[C@H](Nc1ccnc(-c2ccccc2)n1)C(=O)O [Compound 73]
IC50: < 50 nM
//
COMPOUND: COCCN(CCCCc1ccc2c(n1)NCCC2)CC[C@H](Nc1ncnc2c(C(F)(F)F)cccc12)C(=O)O [Compound 15]
IC50: < 50 nM
//
COMPOUND: Cc1cc(C)n(CCN(CCCCc2ccc3c(n2)NCCC3)CC[C@H](Nc2ncnc3ccccc23)C(=O)O)n1 [Compound 45]
IC50: < 50 nM
//
COMPOUND: O=C(O)[C@H](CCN(CCCCc1ccc2c(n1)NCCC2)CCOc1cncc(F)c1)Nc1ncnc2cccnc12 [Compound 60]
IC50: < 50 nM
//
COMPOUND: O=C(O)[C@H](CCN(CCCCc1ccc2c(n1)NCCC2)CC(F)F)Nc1ncnc2ccccc12 [Compound 8]
IC50: 50 to 250 nM
